test: Stability of analytes in rat plasma (QC samples) under storage conditions; settings: −20°C to 25°C, high QC (800, 16000, 3200, 400, 40 ng/mL in the same order), n = 5
As shown below, each of these molecules has a reported Stability, Three freeze-thaw cycles, Mean value.
Numbers only; they are read as %.

# annotated cases, reported Stability, Three freeze-thaw cycles, Mean shown
OCC1=C[C@@H](O)[C@@H]2C=CO[C@@H](O[C@@H]3O[C@H](CO)[C@@H](O)[C@H](O)[C@H]3O)[C@H]12; 89.1
COC(=O)C1=CO[C@@H](O[C@@H]2O[C@H](CO)[C@@H](O)[C@H](O)[C@H]2O)[C@@H]2[C@@H](C)[C@@H](O)C[C@H]12; 92.4
O=C(/C=C/c1ccc(O)c(O)c1)O[C@@H]1C[C@](O)(C(=O)O)C[C@@H](O)[C@H]1O; 80.9
COC(=O)C1=CO[C@@H](O[C@@H]2O[C@H](CO)[C@@H](O)[C@H](O)[C@H]2O)[C@@H]2[C@H](C)O[C@@H](O)C[C@H]12 [Morroniside, morroniside]; 89.8

Now look at this entry.
The recorded Stability, Three freeze-thaw cycles, Mean for O=Cc1ccc(O)c(O)c1 is 89.5

* * *

test: Pharmacokinetic study of 5 compounds in rat plasma after oral administration of Zuogui Pill extract (HPLC-MS/MS, noncompartmental analysis); format: in vivo, Female Sprague-Dawley rats; conditions: female, Sprague-Dawley, rat, po, 1.5 mL/100 g, osteoporotic rats with kidney-yin-deficiency, oral Zuogui Pill extract 1.5 mL/100 g, n = 6
Measured metric: Tmax

COC(=O)C1=CO[C@@H](O[C@@H]2O[C@H](CO)[C@@H](O)[C@H](O)[C@H]2O)[C@@H]2[C@H](C)O[C@@H](O)C[C@H]12 [Morroniside, morroniside]; 14.4 min
O=Cc1ccc(O)c(O)c1 [Protocatechuic aldehyde, protocatechuic aldehyde]; 10.2 min
COC(=O)C1=CO[C@@H](O[C@@H]2O[C@H](CO)[C@@H](O)[C@H](O)[C@H]2O)[C@@H]2[C@@H](C)[C@@H](O)C[C@H]12 [Loganin, loganin]; 15 min

The recorded Tmax for OCC1=C[C@@H](O)[C@@H]2C=CO[C@@H](O[C@@H]3O[C@H](CO)[C@@H](O)[C@H](O)[C@H]3O)[C@H]12 [Aucubin, aucubin] is 15 min

* * *

assay: Pharmacokinetic study of 5 compounds in rat plasma after oral administration of Zuogui Pill extract (HPLC-MS/MS, noncompartmental analysis); type: in vivo, Female Sprague-Dawley rats; details: female, Sprague-Dawley, rat, po, 1.5 mL/100 g, osteoporosis rats (ovariectomized), oral Zuogui Pill extract 1.5 mL/100 g, n = 6, read-out: MRT0–t
As shown below, each of these molecules has a reported MRT last value.
Numbers only; they are read as h.

O=C(/C=C/c1ccc(O)c(O)c1)O[C@@H]1C[C@](O)(C(=O)O)C[C@@H](O)[C@H]1O [Chlorogenic acid, chlorogenic acid]; 6.78
OCC1=C[C@@H](O)[C@@H]2C=CO[C@@H](O[C@@H]3O[C@H](CO)[C@@H](O)[C@H](O)[C@H]3O)[C@H]12 [Aucubin, aucubin]; 3.06
COC(=O)C1=CO[C@@H](O[C@@H]2O[C@H](CO)[C@@H](O)[C@H](O)[C@H]2O)[C@@H]2[C@H](C)O[C@@H](O)C[C@H]12 [Morroniside, morroniside]; 4.37
O=Cc1ccc(O)c(O)c1 [Protocatechuic aldehyde, protocatechuic aldehyde]; 5.52

Now look at this entry.
The recorded MRT last for COC(=O)C1=CO[C@@H](O[C@@H]2O[C@H](CO)[C@@H](O)[C@H](O)[C@H]2O)[C@@H]2[C@@H](C)[C@@H](O)C[C@H]12 [Loganin, loganin] is 4.91

* * *

assay: Pharmacokinetic study of 5 compounds in rat plasma after oral administration of Zuogui Pill extract (HPLC-MS/MS, noncompartmental analysis); format: in vivo, Female Sprague-Dawley rats; settings: female, Sprague-Dawley, rat, po, 1.5 mL/100 g, osteoporotic rats with kidney-yin-deficiency, oral Zuogui Pill extract 1.5 mL/100 g, n = 6, read-out: MRT0–t
Threshold rule: MRT last greater than or equal to 5 h is criterion met; below that, criterion not met.

Task item: Tell me whether MRT last is at least 5 h here: O=Cc1ccc(O)c(O)c1 [Protocatechuic aldehyde, protocatechuic aldehyde]
Reply: criterion not met

Task item: Tell me whether MRT last is at least 5 h here: COC(=O)C1=CO[C@@H](O[C@@H]2O[C@H](CO)[C@@H](O)[C@H](O)[C@H]2O)[C@@H]2[C@@H](C)[C@@H](O)C[C@H]12 [Loganin, loganin]
Reply: criterion met

Task item: Tell me whether MRT last is at least 5 h here: O=C(/C=C/c1ccc(O)c(O)c1)O[C@@H]1C[C@](O)(C(=O)O)C[C@@H](O)[C@H]1O [Chlorogenic acid, chlorogenic acid]
Reply: criterion not met

Task item: Tell me whether MRT last is at least 5 h here: OCC1=C[C@@H](O)[C@@H]2C=CO[C@@H](O[C@@H]3O[C@H](CO)[C@@H](O)[C@H](O)[C@H]3O)[C@H]12 [Aucubin, aucubin]
Reply: criterion met

* * *

assay: Pharmacokinetic study of 5 compounds in rat plasma after oral administration of Zuogui Pill extract (HPLC-MS/MS, noncompartmental analysis); format: in vivo, Female Sprague-Dawley rats; settings: female, Sprague-Dawley, rat, po, 1.5 mL/100 g, osteoporotic rats with kidney-yin-deficiency, oral Zuogui Pill extract 1.5 mL/100 g, n = 6
Response field label takes condition met when half-life is strictly below 4 h and condition not met in all other cases.

A selection of reference data follows.
O=C(/C=C/c1ccc(O)c(O)c1)O[C@@H]1C[C@](O)(C(=O)O)C[C@@H](O)[C@H]1O; condition not met
COC(=O)C1=CO[C@@H](O[C@@H]2O[C@H](CO)[C@@H](O)[C@H](O)[C@H]2O)[C@@H]2[C@H](C)O[C@@H](O)C[C@H]12 [Morroniside, morroniside]; condition met
O=Cc1ccc(O)c(O)c1; condition met
OCC1=C[C@@H](O)[C@@H]2C=CO[C@@H](O[C@@H]3O[C@H](CO)[C@@H](O)[C@H](O)[C@H]3O)[C@H]12; condition not met

// next entry
Task item: Is half-life of COC(=O)C1=CO[C@@H](O[C@@H]2O[C@H](CO)[C@@H](O)[C@H](O)[C@H]2O)[C@@H]2[C@@H](C)[C@@H](O)C[C@H]12 strictly below 4 h?
Reply: condition met
